This collection of values is drawn from patent US20210130436A1.

Readings of MFI for the listed binders
# EXPERIMENTAL TARGET: T1, TIGIT (Homo sapiens (Human), UniProt Q495A1 23-244)
# T1 construct: also called TIGIT tfxn
# T1 sequence: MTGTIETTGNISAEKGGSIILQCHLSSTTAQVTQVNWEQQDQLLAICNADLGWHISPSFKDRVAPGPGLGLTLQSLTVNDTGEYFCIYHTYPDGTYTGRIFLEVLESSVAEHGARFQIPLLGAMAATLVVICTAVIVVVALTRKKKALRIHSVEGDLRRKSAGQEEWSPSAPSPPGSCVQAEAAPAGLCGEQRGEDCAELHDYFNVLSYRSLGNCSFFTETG
# EXPERIMENTAL DETAILS: flow cytometry on TIGIT-transfected Expi293 cells
# output: numeric value plus its unit

- BINDER: "variant CD155 IgV-Fc A81V/L83P (Fc fusion, not shown: a dimerising Fc or GST) WPPPGTGDVVVQAPTQVPGFLGDSVTLPCYLQVPNMEVTHVSQLTWARHGESGSMAVFHQTQGPSYSESKRLEFVAARLGVEPRNASLRMFGLRVEDEGNYTCLFVTFPQGSRSVDIWLRVL"
  MFI: "2910 MFI"
- BINDER: "variant CD155 IgV-Fc P18L/L79V/F91S (Fc fusion, not shown: a dimerising Fc or GST) WPPPGTGDVVVQAPTQVLGFLGDSVTLPCYLQVPNMEVTHVSQLTWARHGESGSMAVFHQTQGPSYSESKRLEFVAARVGAELRNASLRMSGLRVEDEGNYTCLFVTFPQGSRSVDIWLRVL"
  MFI: "4070 MFI"
- BINDER: "wild-type CD155 IgV-Fc (Fc fusion, not shown: a dimerising Fc or GST) WPPPGTGDVVVQAPTQVPGFLGDSVTLPCYLQVPNMEVTHVSQLTWARHGESGSMAVFHQTQGPSYSESKRLEFVAARLGAELRNASLRMFGLRVEDEGNYTCLFVTFPQGSRSVDIWLRVL"
  MFI: "2720 MFI"

QUERY: Given variant CD155 IgV-Fc P18T/F91S/R94H (Fc fusion, not shown: a dimerising Fc or GST) WPPPGTGDVVVQAPTQVTGFLGDSVTLPCYLQVPNMEVTHVSQLTWARHGESGSMAVFHQTQGPSYSESKRLEFVAARLGAELRNASLRMSGLHVEDEGNYTCLFVTFPQGSRSVDIWLRVL , state its recorded MFI.
RESULT: 2940 MFI
